% remaining by entry:
- assay method text: Microsomal stability
- Assay type: in vitro ADME, mouse
- condition context: microsomes only, 60 min
Give the value in % but do not write % after it.

CC[C@H](C)[C@H]1C(=O)N2CCC[C@H]2C(=O)O[C@H](C(C)(C)C)C[C@@H](C)C[C@H](O)[C@H](C)C2=N[C@@H](CCC(=O)N[C@@H](Cc3ccc(OC)cc3)C(=O)N(C)[C@@H](C)C(=O)N1C)CS2; 87.10

Enquiry: Record request: % remaining value, item `CC[C@H](C)[C@H]1C(=O)N2CCC[C@@H]2C(=O)O[C@H](C(C)(C)C)C[C@@H](C)C[C@H](O)C(C)(C)C2=N[C@@H](CCC(=O)N[C@@H](Cc3ccc(OC)cc3)C(=O)N(C)[C@@H](C)C(=O)N1C)CS2`
Return: 81.25

Enquiry: Record request: % remaining value, item `CC[C@H](C)[C@H]1C(=O)N2CCC[C@@H]2C(=O)O[C@H](C(C)(C)C)C[C@@H](C)C[C@H](O)CC2=N[C@@H](CCC(=O)N[C@@H](Cc3ccc(OC)cc3)C(=O)N(C)[C@@H](C)C(=O)N1C)CS2`
Return: 54.50

Enquiry: Record request: % remaining value, item `CC[C@H](C)[C@H]1C(=O)N2CCC[C@@H]2C(=O)O[C@H](C(C)(C)C)C[C@@H](C)C[C@H](O)[C@H](C)C2=N[C@H](CCC(=O)N[C@@H](Cc3ccc(OC)cc3)C(=O)N(C)[C@@H](C)C(=O)N1C)CS2`
Return: 48.45

###

- assay method text: Microsomal stability
- Format: in vitro ADME, mouse
- condition context: microsomes only, 30 min
- Experimental: HPLC-MS was done on a 3200 QTRAP (Applied Biosystems) equipped with a Shimadzu (Kyoto, Japan) UFLC System. Mouse serum and harmine were purchased from Sigma-Aldrich. Pooled CD1 mouse liver (female) microsomes were purchased from XenoTech, LCC (Lenexa, Kans.) with protein concentrations of 0.5 mg/ml. HCT116 cell lysates were prepared with PhosphoSafe lysis buffer (Novagen). Protein concentration was determined by using the BCA Assay. […]
% remaining by entry:
Give the value in % but do not write % after it.

# count of solved cases: 3
CC[C@H](C)[C@H]1C(=O)N2CCC[C@@H]2C(=O)O[C@H](C(C)(C)C)C[C@@H](C)C[C@H](O)CC2=N[C@@H](CCC(=O)N[C@@H](Cc3ccc(OC)cc3)C(=O)N(C)[C@@H](C)C(=O)N1C)CS2; 54.80
CC[C@H](C)[C@H]1C(=O)N2CCC[C@H]2C(=O)O[C@H](C(C)(C)C)C[C@@H](C)C[C@H](O)[C@H](C)C2=N[C@@H](CCC(=O)N[C@@H](Cc3ccc(OC)cc3)C(=O)N(C)[C@@H](C)C(=O)N1C)CS2; 73.85
CC[C@H](C)[C@H]1C(=O)N2CCC[C@@H]2C(=O)O[C@H](C(C)(C)C)C[C@@H](C)C[C@H](O)[C@H](C)C2=N[C@H](CCC(=O)N[C@@H](Cc3ccc(OC)cc3)C(=O)N(C)[C@@H](C)C(=O)N1C)CS2; 56.05

Now for another entry.
Enquiry: Record request: % remaining value, item `CC[C@H](C)[C@H]1C(=O)N2CCC[C@@H]2C(=O)O[C@H](C(C)(C)C)C[C@@H](C)C[C@H](O)C(C)(C)C2=N[C@@H](CCC(=O)N[C@@H](Cc3ccc(OC)cc3)C(=O)N(C)[C@@H](C)C(=O)N1C)CS2`
Return: 74.75
